- Tested on: K-562 leukemia
- Test description: NCI tumour cell line growth inhibition, 48 h; in the data active = GI50 below about 0.43 µM; inactive = the rest
Labels: T = active, F = inactive

Smiles input: c1ccc(Oc2ccc(Nc3ncc(-c4ccccc4)o3)cc2)cc1
Class label: F
//
Smiles input: O=C(NCCOCCOCCOCCNC(=O)c1cc2c(o1)C(=O)c1ccccc1C2=O)NC12CC3CC(CC(C3)C1)C2
Class label: F
//
Smiles input: O=C1Nc2ccccc2/C1=C\c1nc(-c2ccccc2F)n2ccccc12
Class label: F
//
Smiles input: N#Cc1nc(C#N)c(Sc2ccccc2)c(Sc2ccccc2)c1Sc1ccccc1
Class label: F
//
Smiles input: C[N+](C)(C)c1cc[c]([Sn]([c]2ccc([N+](C)(C)C)cc2)([c]2ccc([N+](C)(C)C)cc2)[c]2ccc([N+](C)(C)C)cc2)cc1
Class label: F
//
Smiles input: Cn1c(=O)c(Oc2ccc(F)cc2F)cc2cnc(N[C@@H]3CCOC3)nc21
Class label: F
//
Smiles input: CCC(=O)N1C/C(=C/c2ccc(Br)cc2)C(=O)/C(=C/c2ccc(Br)cc2)C1
Class label: T

---

- System: COLO 205 colon
- Test description: NCI tumour cell line growth inhibition, 48 h

Compound: CC1=C(C(=O)Nc2ccc(F)c(Cl)c2)C(c2cccc(Oc3ccccc3)c2)NC(=S)N1 (stereo not given)
Experimental target: COLO 205 colon
GI50: 17.9 µM
//
Compound: c1ccc(Oc2ccc(Nc3ncc(-c4ccccc4)o3)cc2)cc1
Experimental target: COLO 205 colon
GI50: > 25 µM
//
Compound: CCCCCCCCCCCCN=C(N)c1ccc(N2CCN(c3ccc(C(N)=NCCCCCCCCCCCC)cc3)CC2)cc1
Experimental target: COLO 205 colon
GI50: 11.6 µM
//
Compound: C[N+](C)(C)c1cc[c]([Sn]([c]2ccc([N+](C)(C)C)cc2)([c]2ccc([N+](C)(C)C)cc2)[c]2ccc([N+](C)(C)C)cc2)cc1
Experimental target: COLO 205 colon
GI50: > 100 µM
//
Compound: O=C1Nc2ccccc2/C1=C\c1nc(-c2ccccc2F)n2ccccc12
Experimental target: COLO 205 colon
GI50: 4.08 µM

---

- Test system: HOP-92 NSCLC
- Test description: NCI tumour cell line growth inhibition, 48 h

Compound: COc1ccc2c(c1)C(OC)C1c3c(cc4c(c3-2)OCO4)CCN1C (stereo unspecified)
Experimental target: HOP-92 NSCLC
TGI: 11.8 µM

Compound: Clc1cccc(CNc2c3ccccc3nc3ccccc23)c1
Experimental target: HOP-92 NSCLC
TGI: 3.82 µM

Compound: c1cc2nnc1SCCSCCSCCSc1ccc(nn1)SCCSCCSCCS2
Experimental target: HOP-92 NSCLC
TGI: > 100 µM

Compound: Cn1c(=O)cc2[nH]c3ccccc3n2c1=O
Experimental target: HOP-92 NSCLC
TGI: > 100 µM

Compound: Cc1cn(Cc2cccc(C3=NCCCN3)c2)c(=O)n(Cc2cccc(C3=NCCCN3)c2)c1=O
Experimental target: HOP-92 NSCLC
TGI: > 100 µM

Compound: CS(=O)(=O)OCCCSCCSCCCOS(C)(=O)=O
Experimental target: HOP-92 NSCLC
TGI: > 100 µM

---

- System: OVCAR-8 ovarian
- Test description: NCI tumour cell line growth inhibition, 48 h

Smiles input: CCN(CC)CCN1c2nc3ccccc3cc2Sc2cc3ccccc3nc21
GI50: 2.43 µM
--
Smiles input: COc1cc(-c2nc3ccccc3o2)cc(CN2CCCCC2)c1O
GI50: 11.4 µM
--
Smiles input: C/C=C/C(=O)[O-].C/C=C/C(=O)[O-].N.N.N.N.[Co+3].[O-][Cl+3]([O-])([O-])[O-]
GI50: > 100 µM
--
Smiles input: O=C(Nc1cc(F)c(F)cc1C(=O)O)c1ccc(-n2ccnc2)nn1
GI50: > 100 µM
--
Smiles input: COc1ccc(-c2cc(-c3ccc(Cl)cc3)nc(NCCCCNc3ccnc4cc(Cl)ccc34)n2)cc1
GI50: 1.9 µM
